Hello, the source for this data is ChEMBL document CHEMBL1149532, in case you need it.

# assay text: AUC in rat at 15 mg/kg, ip after 24 hrs
# Type: ADME, organism-based
# Set-up: time < 24 hr, dose 15 mg/kg, route intraperitoneal
# details: plasma
assay readout: AUC at 24 h (ng·h/mL)
Expressed in ng·h/mL, but write only the number.

Input: Query (compound): Cc1cc(C)cc(-c2[nH]c3c(c2[C@H](C)CNCCc2ccc(-c4nnn[nH]4)cc2)CN(C(=O)Cc2c(F)cccc2C(F)(F)F)CC3)c1 ; field requested: AUC at 24 h
Output: 6500

---

IC50 listing for selected molecules.
# target: Gonadotropin-releasing hormone receptor (Rattus norvegicus, UniProt P30969)
# Sequence (P30969 whole entry): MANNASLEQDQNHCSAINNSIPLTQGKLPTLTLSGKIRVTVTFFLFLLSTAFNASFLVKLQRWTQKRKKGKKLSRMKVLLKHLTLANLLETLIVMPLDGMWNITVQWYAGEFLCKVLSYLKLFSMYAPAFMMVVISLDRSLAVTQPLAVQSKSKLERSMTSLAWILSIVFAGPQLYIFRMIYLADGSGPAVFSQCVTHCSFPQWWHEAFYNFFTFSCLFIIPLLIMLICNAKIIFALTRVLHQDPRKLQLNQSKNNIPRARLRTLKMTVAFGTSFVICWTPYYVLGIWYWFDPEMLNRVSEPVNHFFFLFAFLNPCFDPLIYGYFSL
# assay text: Inhibition of GnRHR in rat pituitary cells assessed as inhibition of GnRH-stimulated LH release

Input: Look up IC50: Cc1cc(C)cc(-c2[nH]c3c(c2[C@H](C)CNCCC2CCOCC2)CN(C(=O)Cc2c(F)cccc2C(F)(F)F)CC3)c1
Output: 480 nM

Input: Now try Cc1cc(C)cc(-c2[nH]c3c(c2[C@H](C)CNCCc2ccc4nccnc4c2)CN(C(=O)Cc2c(F)cccc2C(F)(F)F)CC3)c1 .
Output: 68 nM

Input: Same question for Cc1cc(C)cc(-c2[nH]c3c(c2[C@H](C)CNCCc2ccncc2)CN(C(=O)C2CCCC2)CC3)c1 please.
Output: 250 nM

Input: And the next one, Cc1cc(C)cc(-c2[nH]c3c(c2[C@H](C)CNCCc2cnc4nn[nH]c4c2)CN(C(=O)Cc2c(F)cccc2C(F)(F)F)CC3)c1 ?
Output: 6.4 nM
